# Test system: Human hepatocellular carcinoma cell HepG2
# methodNotes: cells
# conditions: HepG2, read-out: IC50 (50% inhibition concentration)
Attribute: IC50

Example molecules with recorded IC50:
>>> recordedresult("C=C(C)C1CC[C@@]2(C)Oc3c(CC=C(C)C)c4c(c(O)c3[C@@H]1C2O)C(=O)C1=C[C@@H]2CC3C(C)(C)OC(C/C=C(/C)C(=O)O)(C2=O)[C@@]13O4 (stereo partly drawn) [Gh-1050, 3α-hydroxygambogellic acid]")
"1.1 µg/mL"
>>> recordedresult("CC(C)=CCc1c2c(c(O)c3c1O[C@]14C(=C[C@@H]5CC1C(C)(C)OC4(C/C=C(\\C)C(=O)O)C5=O)C3=O)C=CC(C)(C/C=C\\C(C)(C)O)O2 (stereo partly shown)")
"6.7 µg/mL"
>>> recordedresult("C=C(C)C(O)CC[C@]1(C)C=Cc2c(O)c3c(c(CC=C(C)C)c2O1)O[C@]12C(=C[C@@H]4CC1C(C)(C)OC2(C/C=C(/C)C(=O)O)C4=O)C3=O (stereo partly shown)")
"0.65 µg/mL"
>>> recordedresult("CC(C)=CCC[C@@]1(C)C=Cc2c(O)c3c(c(C(O)C4OC4(C)C)c2O1)O[C@]12C(=C[C@@H]4CC1C(C)(C)OC2(C/C=C(/C)C(=O)O)C4=O)C3=O (stereo partly shown) [Gh-3311, epiformoxanthone G]")
"7.9 µg/mL"

stdin: Value lookup for IC50; key = CC(C)=CCC[C@]1(C)C=Cc2c(O)c3c(c(C(O)C4OC4(C)C)c2O1)O[C@]12C(=C[C@@H]4CC1C(C)(C)OC2(C/C=C(/C)C(=O)O)C4=O)C3=O (stereo partly shown)
stdout: 5.3 µg/mL

stdin: Entry CC(C)=CCC[C@@]1(C)C=Cc2c(O)c3c(c(CC4OC4(C)C)c2O1)O[C@]12C(=C[C@@H]4CC1C(C)(C)OC2(C/C=C(/C)C(=O)O)C4=O)C3=O (stereo partly shown) [Gh-3351, epiformoxanthone E] please
stdout: 2.9 µg/mL

stdin: Entry C=C(C)C1CC[C@]2(C)C[C@H]1c1c(O)c3c(c(CC=C(C)C)c1O2)O[C@]12C(=CC4CC1C(C)(C)O[C@]2(C/C=C(/C)C(=O)O)C4=O)C3=O (stereo partly shown) please
stdout: 0.65 µg/mL

stdin: Entry CC(C)=CCC[C@]1(C)C=Cc2c(O)c3c(c(CC4OC4(C)C)c2O1)O[C@]12C(=C[C@@H]4CC1C(C)(C)OC2(C/C=C(/C)C(=O)O)C4=O)C3=O (stereo partly shown) please
stdout: 0.16 µg/mL

stdin: Entry CC(C)=CCc1c2c(c(O)c3c1O[C@]14C(=C[C@@H]5CC1C(C)(C)OC4(C/C=C(/C)C(=O)O)C5=O)C3=O)C=C[C@@](C)(C/C=C/C(C)(C)O)O2 please
stdout: 1.2 µg/mL

stdin: Entry C=C(C)[C@@H]1CC[C@@]2(C)CC1c1c(O)c3c(c(CC=C(C)C)c1O2)O[C@]12C(=C[C@@H]4CC1C(C)(C)O[C@]2(C/C=C(/C)C(=O)O)C4=O)C3=O [Gh-2603-1, epigambogellic acid] please
stdout: 1 µg/mL
